// reported MIC per item
Test system: Klebsiella pneumoniae MGH-2
Experiment: in vitro antibacterial activity, microtitration dilution method
Format: cell-based
Settings: MGH2; in vitro; Klebsiella pneumoniae MGH-2; read-out: minimal inhibitory concentration (MIC)
Unit µg/mL implied. Number only.

Check out these entries, answers already filled in.
{"COMPOUND": "O=C(O)c1cn(C2CC2)c2c(F)c(N3CC4CCCC3CN4)c(F)cc2c1=O (stereo not drawn)", "MIC, µg/mL": 0.2}
{"COMPOUND": "CCn1cc(C(=O)O)c(=O)c2cc(F)c(N3CC4CCCC3CN4C)c(F)c21 (stereo not drawn)", "MIC, µg/mL": 1.6}

# ---- query compound ----
IN: Give the measured MIC of CCn1cc(C(=O)O)c(=O)c2cc(F)c(N3CC4CCCC3CN4)c(F)c21 (stereo not drawn) .
OUT: 0.8

====

Tested on: Enterobacter cloacae MA 2646
Test: in vitro antibacterial activity, microtitration dilution method
Assay type: cell-based
Settings: MA2646; in vitro; Enterobacter cloacae MA 2646; read-out: minimal inhibitory concentration (MIC)
Quick rule for you: MIC under 0.8 µg/mL gets YES, anything else gets NO.

A selection of reference data follows.
{"COMPOUND": "CCN[C@H]1C[C@H]2CC[C@@H](C1)N2c1cc2c(cc1F)c(=O)c(C(=O)O)cn2C1CC1", "CATEGORY_LABEL": "NO"}
{"COMPOUND": "CCn1cc(C(=O)O)c(=O)c2cc(F)c(N3CC4CCCC3CN4C)c(F)c21 (stereo not shown)", "CATEGORY_LABEL": "NO"}
{"COMPOUND": "CCN[C@H]1C[C@H]2CC[C@@H](C1)N2c1c(F)cc2c(=O)c(C(=O)O)cn(C3CC3)c2c1F", "CATEGORY_LABEL": "YES"}

IN: Please check: MIC for O=C(O)c1cn(C2CC2)c2c(Cl)c(N3CC4CCCC3CN4)c(F)cc2c1=O (stereo not shown) , strictly under 0.8 µg/mL or not?
OUT: YES

IN: MIC strictly < 0.8 µg/mL for this compound? O=C(O)c1cn(C2CC2)c2c(F)c(N3CC4CCCC3CN4)c(F)cc2c1=O (stereo not shown)
OUT: YES

IN: Hello, is MIC of the following compound strictly smaller than 0.8 µg/mL? CCn1cc(C(=O)O)c(=O)c2cc(F)c(N3CC4CCCC3CN4)c(F)c21 (stereo not shown)
OUT: YES

IN: # strict comparison: is reported MIC < 0.8 µg/mL? input = `CCN[C@@H]1C[C@H]2CC[C@@H](C1)N2c1c(F)cc2c(=O)c(C(=O)O)cn(C3CC3)c2c1F`
OUT: YES

====

System: Streptococcus faecalis MGH-2
Experiment: in vitro antibacterial activity, microtitration dilution method
Type: cell-based
Settings: Enterococcus faecalis, MGH2; in vitro; Streptococcus faecalis MGH-2; read-out: minimal inhibitory concentration (MIC)
We begin with a simple list: items and their reported MIC.
Respond with the bare value in µg/mL.

Answered examples (3):
{"COMPOUND": "CCN[C@@H]1C[C@H]2CC[C@@H](C1)N2c1cc2c(cc1F)c(=O)c(C(=O)O)cn2C1CC1", "RECORDED_NUMBER": 0.4}
{"COMPOUND": "CCN[C@@H]1C[C@H]2CC[C@@H](C1)N2c1c(F)cc2c(=O)c(C(=O)O)cn(C3CC3)c2c1F", "RECORDED_NUMBER": 0.2}
{"COMPOUND": "O=C(O)c1cn(C2CC2)c2c(F)c(N3CC4CCCC3CN4)c(F)cc2c1=O (centres unmarked)", "RECORDED_NUMBER": 0.2}

IN: Fill in: MIC of `CCN[C@H]1C[C@H]2CC[C@@H](C1)N2c1cc2c(cc1F)c(=O)c(C(=O)O)cn2C1CC1` is ___
OUT: 3.1

IN: What MIC value was documented for this compound, `CCN[C@@H]1C[C@H]2CC[C@@H](C1)N2c1nc2c(cc1F)c(=O)c(C(=O)O)cn2C1CC1` ?
OUT: 0.4

IN: Bench note: what MIC did O=C(O)c1cn(C2CC2)c2cc(N3CC4CCCC3CN4)c(F)cc2c1=O (centres unmarked) show?
OUT: 0.1

IN: Quick check: MIC of O=C(O)c1cn(C2CC2)c2c(Cl)c(N3CC4CCCC3CN4)c(F)cc2c1=O (centres unmarked) ?
OUT: 0.2

IN: For the compound shown here, O=C(O)c1cn(C2CC2)c2nc(N3CC4CCCC3CN4)c(F)cc2c1=O (centres unmarked) , give the reported MIC.
OUT: 0.2

====

System: Streptococcus pneumoniae SV-1
Assay: in vitro antibacterial activity, microtitration dilution method
Assay type: cell-based
Details: SV1; in vitro; Streptococcus pneumoniae SV-1; read-out: minimal inhibitory concentration (MIC)
READOUT_KIND: MIC

{"MOLECULE": "CCn1cc(C(=O)O)c(=O)c2cc(F)c(N3CC4CCCC3CN4)c(F)c21 (centres unmarked) [Example 1]", "MIC": "0.8 µg/mL"}
{"MOLECULE": "O=C(O)c1cn(C2CC2)c2nc(N3CC4CCCC3CN4)c(F)cc2c1=O (centres unmarked) [Example 3]", "MIC": "0.05 µg/mL"}
{"MOLECULE": "CCn1cc(C(=O)O)c(=O)c2cc(F)c(N3CC4CCCC3CN4C)c(F)c21 (centres unmarked) [Example 4]", "MIC": "0.8 µg/mL"}
{"MOLECULE": "O=C(O)c1cn(C2CC2)c2c(Cl)c(N3CC4CCCC3CN4)c(F)cc2c1=O (centres unmarked) [Example 8]", "MIC": "0.1 µg/mL"}
{"MOLECULE": "CCN[C@H]1C[C@H]2CC[C@@H](C1)N2c1nc2c(cc1F)c(=O)c(C(=O)O)cn2C1CC1 [Example 5b]", "MIC": "0.4 µg/mL"}
{"MOLECULE": "CCN[C@@H]1C[C@H]2CC[C@@H](C1)N2c1c(F)cc2c(=O)c(C(=O)O)cn(C3CC3)c2c1F [Example 5d]", "MIC": "0.1 µg/mL"}
{"MOLECULE": "CCN[C@@H]1C[C@H]2CC[C@@H](C1)N2c1cc2c(cc1F)c(=O)c(C(=O)O)cn2C1CC1 [Example 5e]", "MIC": "0.2 µg/mL"}
{"MOLECULE": "CCN[C@@H]1C[C@H]2CC[C@@H](C1)N2c1nc2c(cc1F)c(=O)c(C(=O)O)cn2C1CC1 [Example 5a]", "MIC": "0.2 µg/mL"}
{"MOLECULE": "CCN[C@H]1C[C@H]2CC[C@@H](C1)N2c1c(F)cc2c(=O)c(C(=O)O)cn(C3CC3)c2c1F [Example 5c]", "MIC": "0.4 µg/mL"}
{"MOLECULE": "O=C(O)c1cn(C2CC2)c2cc(N3CC4CCCC3CN4)c(F)cc2c1=O (centres unmarked) [Example 7]", "MIC": "0.05 µg/mL"}

--- query ---
IN: So what does the record say about MIC for O=C(O)c1cn(C2CC2)c2c(F)c(N3CC4CCCC3CN4)c(F)cc2c1=O (centres unmarked) [Example 2] ?
OUT: 0.2 µg/mL

====

Form: system (Proteus rettgeri M 1771), quantity (MIC), values below.
Form entry: value (µg/mL) — number only.

Here are 4 compounds together with their reported answers.
{"COMPOUND": "CCn1cc(C(=O)O)c(=O)c2cc(F)c(N3CC4CCCC3CN4C)c(F)c21 (centres unmarked)", "MIC / µg/mL": 6.3}
{"COMPOUND": "CCn1cc(C(=O)O)c(=O)c2cc(F)c(N3CC4CCCC3CN4)c(F)c21 (centres unmarked)", "MIC / µg/mL": 0.8}
{"COMPOUND": "CCN[C@@H]1C[C@H]2CC[C@@H](C1)N2c1c(F)cc2c(=O)c(C(=O)O)cn(C3CC3)c2c1F", "MIC / µg/mL": 1.6}
{"COMPOUND": "CCN[C@@H]1C[C@H]2CC[C@@H](C1)N2c1nc2c(cc1F)c(=O)c(C(=O)O)cn2C1CC1", "MIC / µg/mL": 3.1}

IN: What does the record list as MIC for O=C(O)c1cn(C2CC2)c2c(F)c(N3CC4CCCC3CN4)c(F)cc2c1=O (centres unmarked) ?
OUT: 0.4

IN: Quick check: MIC of `CCN[C@H]1C[C@H]2CC[C@@H](C1)N2c1cc2c(cc1F)c(=O)c(C(=O)O)cn2C1CC1` ?
OUT: 12.5

IN: Bench note: what MIC did O=C(O)c1cn(C2CC2)c2c(Cl)c(N3CC4CCCC3CN4)c(F)cc2c1=O (centres unmarked) show?
OUT: 0.4

IN: I'd like to know its MIC. The compound in question is `CCN[C@@H]1C[C@H]2CC[C@@H](C1)N2c1cc2c(cc1F)c(=O)c(C(=O)O)cn2C1CC1`
OUT: 3.1
